- EXPERIMENTAL TARGET: Recombinant human HDAC7 (Homo sapiens)
- Construct: purchased Millipore
- Sequence (Q8WUI4 1-952): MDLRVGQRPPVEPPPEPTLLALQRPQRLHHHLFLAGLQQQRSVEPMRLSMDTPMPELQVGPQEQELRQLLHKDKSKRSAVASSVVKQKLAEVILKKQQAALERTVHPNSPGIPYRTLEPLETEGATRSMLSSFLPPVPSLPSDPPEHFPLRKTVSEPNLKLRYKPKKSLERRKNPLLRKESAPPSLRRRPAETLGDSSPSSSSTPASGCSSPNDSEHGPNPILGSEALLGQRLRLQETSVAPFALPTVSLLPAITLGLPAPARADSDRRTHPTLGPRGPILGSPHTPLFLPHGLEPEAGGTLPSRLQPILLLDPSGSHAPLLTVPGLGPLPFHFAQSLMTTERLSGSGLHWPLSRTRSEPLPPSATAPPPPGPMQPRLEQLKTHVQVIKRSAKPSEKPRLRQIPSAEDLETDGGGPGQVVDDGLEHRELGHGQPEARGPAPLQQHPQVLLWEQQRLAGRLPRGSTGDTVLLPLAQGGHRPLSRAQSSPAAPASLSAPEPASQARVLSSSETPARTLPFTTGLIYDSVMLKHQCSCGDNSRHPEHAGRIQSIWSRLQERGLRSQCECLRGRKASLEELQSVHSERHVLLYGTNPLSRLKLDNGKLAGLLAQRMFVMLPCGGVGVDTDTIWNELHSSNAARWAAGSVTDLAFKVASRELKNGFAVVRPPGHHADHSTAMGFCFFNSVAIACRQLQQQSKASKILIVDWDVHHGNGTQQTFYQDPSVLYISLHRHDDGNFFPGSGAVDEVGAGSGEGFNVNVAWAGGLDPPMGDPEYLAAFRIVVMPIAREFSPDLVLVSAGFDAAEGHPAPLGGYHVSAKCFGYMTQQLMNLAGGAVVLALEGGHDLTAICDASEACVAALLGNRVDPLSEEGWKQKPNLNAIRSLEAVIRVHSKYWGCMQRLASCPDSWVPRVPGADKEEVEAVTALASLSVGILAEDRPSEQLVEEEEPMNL
- ASSAY PROTOCOL: HDAC inhibitory assay, HDAC7 (Boc-Lys(Tfa)-AMC substrate)
- Assay type: biochemical
- CONDITION: test concentration not given; average of triplicate
Everything with HDAC 7 inhibitory activity lower than 4% is false (0); everything else, including exactly 4%, is true (1).

O=C(NCCC(c1ccccc1)c1ccccc1)c1coc(-c2ccccc2O)n1	false (0)
O=C(NCCCCNC(=S)NCCC(c1ccccc1)c1ccccc1)c1coc(-c2ccccc2O)n1	true (1)

Could you tell me if the measured HDAC 7 inhibitory activity of O=C(Nc1ccccc1)c1ccc(CNC(=O)c2coc(-c3ccccc3O)n2)cc1 reaches 4% or more?
true (1)

Now the same for O=C(NCCCCNC(=O)C(c1ccccc1)c1ccccc1)c1coc(-c2ccccc2O)n1
false (0)

Now the same for O=C(Nc1ccc(-c2ccccc2)cc1)c1coc(-c2ccccc2O)n1
true (1)

====

- ASSAY PROTOCOL: Cell proliferation assay (MTS, cytotoxicity)
- Assay type: cell-based
- CONDITION: human; cell line not given (MV4-11 24 hours or MCF-7 72 hours); 1 μM to 100 μM; average of triplicate
Provide the reported IC50 of each item.

O=C(NC(c1ccccc1)c1ccccc1)c1coc(-c2ccccc2O)n1	7.6 µM

// for each molecule below, give its IC50
1. O=C(NCC(c1ccccc1)c1ccccc1)c1coc(-c2ccccc2O)n1
2. O=C(NCc1ccc(-c2ccccc2)cc1)c1coc(-c2ccccc2O)n1
3. O=C(Nc1ccccc1)c1coc(-c2ccccc2O)n1

1. 40 µM
2. > 100 µM
3. 25 µM

====

- EXPERIMENTAL TARGET: Recombinant human HDAC4 (Homo sapiens)
- Construct: purchased Millipore
- Sequence (P56524 whole entry): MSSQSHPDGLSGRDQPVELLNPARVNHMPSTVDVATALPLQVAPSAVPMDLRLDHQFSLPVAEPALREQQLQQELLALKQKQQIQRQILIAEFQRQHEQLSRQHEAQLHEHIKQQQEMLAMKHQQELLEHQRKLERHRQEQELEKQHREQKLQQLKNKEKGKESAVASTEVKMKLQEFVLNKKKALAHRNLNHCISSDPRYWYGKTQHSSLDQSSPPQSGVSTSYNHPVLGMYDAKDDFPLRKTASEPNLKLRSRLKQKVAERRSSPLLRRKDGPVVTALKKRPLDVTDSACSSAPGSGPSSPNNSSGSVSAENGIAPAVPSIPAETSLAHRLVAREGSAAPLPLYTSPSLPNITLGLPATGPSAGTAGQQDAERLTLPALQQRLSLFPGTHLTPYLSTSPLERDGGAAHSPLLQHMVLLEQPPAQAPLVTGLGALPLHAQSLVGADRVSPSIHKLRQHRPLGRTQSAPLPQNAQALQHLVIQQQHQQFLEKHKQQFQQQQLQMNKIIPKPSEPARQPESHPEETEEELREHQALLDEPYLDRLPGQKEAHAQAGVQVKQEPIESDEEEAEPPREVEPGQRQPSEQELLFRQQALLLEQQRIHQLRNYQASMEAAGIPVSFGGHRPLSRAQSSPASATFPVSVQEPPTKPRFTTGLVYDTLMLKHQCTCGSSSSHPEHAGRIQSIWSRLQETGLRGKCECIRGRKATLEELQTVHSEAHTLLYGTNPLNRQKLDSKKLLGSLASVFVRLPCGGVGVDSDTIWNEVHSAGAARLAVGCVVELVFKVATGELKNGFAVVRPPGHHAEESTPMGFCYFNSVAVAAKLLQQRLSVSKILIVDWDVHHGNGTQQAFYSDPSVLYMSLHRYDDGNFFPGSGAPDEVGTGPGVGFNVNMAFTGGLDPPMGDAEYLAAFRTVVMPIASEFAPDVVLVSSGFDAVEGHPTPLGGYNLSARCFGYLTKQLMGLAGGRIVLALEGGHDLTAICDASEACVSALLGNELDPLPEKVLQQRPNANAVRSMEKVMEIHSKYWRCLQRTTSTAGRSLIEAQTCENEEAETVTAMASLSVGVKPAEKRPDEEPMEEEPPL
- ASSAY PROTOCOL: HDAC inhibitory assay, HDAC4 (Boc-Lys(Tfa)-AMC substrate)
- Assay type: biochemical
- CONDITION: test concentration not given; average of triplicate
Counter-ions that a name gives are not always drawn.
Everything with HDAC 4 inhibitory activity lower than 20% is Not fulfilled; everything else, including exactly 20%, is Fulfilled.

O=C(Nc1ccc(-c2ccccc2)cc1)c1coc(-c2ccccc2O)n1	Fulfilled
O=C(Nc1ccccc1)c1ccc(CNC(=O)c2coc(-c3ccccc3O)n2)cc1	Not fulfilled

Could you tell me if the measured HDAC 4 inhibitory activity of O=C(CNC(=O)c1coc(-c2ccccc2O)n1)Nc1ccccc1 reaches 20% or more?
Fulfilled

Now the same for O=C(NCCCCNCCC(c1ccccc1)c1ccccc1)c1coc(-c2ccccc2O)n1 [Example 12, hydrochloride]
Not fulfilled

Now the same for O=C(O)c1ccc(CNC(=O)c2coc(-c3ccccc3O)n2)cc1
Fulfilled

Now the same for O=C(NCCCCNC(=S)NCCC(c1ccccc1)c1ccccc1)c1coc(-c2ccccc2O)n1
Fulfilled

====

Provide the reported HDAC 1 inhibitory activity of each item.
- EXPERIMENTAL TARGET: Recombinant human HDAC1 (Homo sapiens, UniProt Q13547)
- Construct: purchased BPS Biosciences
- Sequence (Q13547 whole entry): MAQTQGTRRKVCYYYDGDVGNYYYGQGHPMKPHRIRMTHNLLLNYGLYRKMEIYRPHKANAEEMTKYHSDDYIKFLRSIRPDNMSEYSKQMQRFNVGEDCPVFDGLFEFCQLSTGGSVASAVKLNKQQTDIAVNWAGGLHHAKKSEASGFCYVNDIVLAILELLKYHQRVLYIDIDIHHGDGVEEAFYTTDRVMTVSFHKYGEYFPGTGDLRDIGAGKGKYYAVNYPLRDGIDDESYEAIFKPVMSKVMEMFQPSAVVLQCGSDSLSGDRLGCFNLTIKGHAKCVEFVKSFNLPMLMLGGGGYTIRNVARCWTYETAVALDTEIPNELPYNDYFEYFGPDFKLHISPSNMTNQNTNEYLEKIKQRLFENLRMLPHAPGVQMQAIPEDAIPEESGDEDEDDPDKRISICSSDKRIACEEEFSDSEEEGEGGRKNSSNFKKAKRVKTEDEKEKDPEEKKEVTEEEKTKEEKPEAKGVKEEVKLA
- ASSAY PROTOCOL: HDAC inhibitory assay, HDAC1 (Boc-Lys(Ac)-AMC substrate)
- Assay type: biochemical
- CONDITION: test concentration not given; average of triplicate
Numbers only, in %.

O=C(O)c1ccc(CNC(=O)c2coc(-c3ccccc3O)n2)cc1	70.1
O=C(NCCC(c1ccccc1)c1ccccc1)c1coc(-c2ccccc2O)n1	35.9
O=C(NCCCCNC(=O)C(c1ccccc1)c1ccccc1)c1coc(-c2ccccc2O)n1	27.2

Now turn to the next compound.
Name the reported HDAC 1 inhibitory activity value associated with the compound O=C(NCCCCNC(=S)NCCC(c1ccccc1)c1ccccc1)c1coc(-c2ccccc2O)n1
43.3

====

- EXPERIMENTAL TARGET: Recombinant human HDAC7 (Homo sapiens)
- Construct: purchased Millipore
- Sequence (Q8WUI4 1-952): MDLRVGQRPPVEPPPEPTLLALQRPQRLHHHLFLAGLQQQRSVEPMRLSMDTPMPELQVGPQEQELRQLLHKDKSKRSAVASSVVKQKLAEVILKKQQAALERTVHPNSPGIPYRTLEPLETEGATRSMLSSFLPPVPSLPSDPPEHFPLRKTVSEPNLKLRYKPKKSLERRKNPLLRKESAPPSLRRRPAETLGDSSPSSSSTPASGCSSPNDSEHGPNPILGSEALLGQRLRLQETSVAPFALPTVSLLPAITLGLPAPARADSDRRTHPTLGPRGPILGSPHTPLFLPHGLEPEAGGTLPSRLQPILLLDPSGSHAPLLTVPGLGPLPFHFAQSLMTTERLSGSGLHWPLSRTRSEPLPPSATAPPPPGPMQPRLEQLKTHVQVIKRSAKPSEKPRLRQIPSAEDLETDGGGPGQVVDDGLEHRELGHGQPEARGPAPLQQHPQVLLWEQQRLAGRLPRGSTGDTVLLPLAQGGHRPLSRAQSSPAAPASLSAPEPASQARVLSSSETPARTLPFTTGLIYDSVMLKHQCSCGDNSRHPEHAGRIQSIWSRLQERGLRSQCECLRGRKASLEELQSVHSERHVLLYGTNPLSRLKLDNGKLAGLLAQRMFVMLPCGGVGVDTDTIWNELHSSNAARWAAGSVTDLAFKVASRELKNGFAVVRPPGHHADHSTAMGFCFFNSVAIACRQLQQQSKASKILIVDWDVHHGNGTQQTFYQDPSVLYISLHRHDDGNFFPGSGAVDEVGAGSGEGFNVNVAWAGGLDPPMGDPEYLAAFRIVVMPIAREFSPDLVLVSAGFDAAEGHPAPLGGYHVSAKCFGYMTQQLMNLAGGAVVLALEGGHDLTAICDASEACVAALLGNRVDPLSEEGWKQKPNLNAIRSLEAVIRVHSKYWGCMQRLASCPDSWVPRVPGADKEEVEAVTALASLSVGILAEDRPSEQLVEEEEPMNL
- ASSAY PROTOCOL: HDAC inhibitory assay, HDAC7 (Boc-Lys(Tfa)-AMC substrate)
- Format: biochemical
- CONDITION: test concentration not given; average of triplicate
Structures can show the parent of a compound that is named as a salt.
Provide the reported HDAC 7 inhibitory activity of each item.
Numbers only, in %.

Below: 5 molecules and their reported HDAC 7 inhibitory activity.
O=C(NCc1cccc2ccccc12)c1coc(-c2ccccc2O)n1	3.8
O=C(Nc1ccccc1)c1coc(-c2ccccc2O)n1	1.3
O=C(NCCc1c[nH]c2ccccc12)c1coc(-c2ccccc2O)n1	3.8
O=C(NCCCCNCCC(c1ccccc1)c1ccccc1)c1coc(-c2ccccc2O)n1 [Example 12, hydrochloride]	0
O=C(NCc1ccc(-c2ccccc2)cc1)c1coc(-c2ccccc2O)n1	1.4

Now turn to the next molecule.
What value of HDAC 7 inhibitory activity on Recombinant human HDAC7 (Homo sapiens) does O=C(NCCCCN1C(=O)c2ccccc2C1=O)c1coc(-c2ccccc2O)n1 have?
1.1

====

- EXPERIMENTAL TARGET: Recombinant human HDAC1 (Homo sapiens, UniProt Q13547)
- Construct: purchased BPS Biosciences
- ASSAY PROTOCOL: HDAC inhibitory assay, HDAC1 (Boc-Lys(Ac)-AMC substrate)
- Type: biochemical
- CONDITION: test concentration not given; average of triplicate
Provide the reported HDAC 1 inhibitory activity of each item.
Numbers only, in %.

O=C(NCCCCN1C(=O)c2ccccc2C1=O)c1coc(-c2ccccc2O)n1	35.2

// for each compound below, give its HDAC 1 inhibitory activity
1. O=C(Nc1ccccc1)c1coc(-c2ccccc2O)n1
2. O=C(CNC(=O)c1coc(-c2ccccc2O)n1)Nc1ccccc1
3. O=C(NCC(c1ccccc1)c1ccccc1)c1coc(-c2ccccc2O)n1
4. O=C(NCc1ccc(-c2ccccc2)cc1)c1coc(-c2ccccc2O)n1
5. O=C(Nc1ccc(-c2ccccc2)cc1)c1coc(-c2ccccc2O)n1

[62.5, 25.5, 43.9, 61.4, 62.2]
